These measurements were taken from patent US20170066831A1.

Task for the reader: assign each of the following binders its reported koff.
Biological target: T1, human ST2L extracellular domain with C-terminal His6 tag (human, UniProt Q01638 19-328)
T1 construct: also called huST2L-ECD; ST2L-ECD
T1 sequence: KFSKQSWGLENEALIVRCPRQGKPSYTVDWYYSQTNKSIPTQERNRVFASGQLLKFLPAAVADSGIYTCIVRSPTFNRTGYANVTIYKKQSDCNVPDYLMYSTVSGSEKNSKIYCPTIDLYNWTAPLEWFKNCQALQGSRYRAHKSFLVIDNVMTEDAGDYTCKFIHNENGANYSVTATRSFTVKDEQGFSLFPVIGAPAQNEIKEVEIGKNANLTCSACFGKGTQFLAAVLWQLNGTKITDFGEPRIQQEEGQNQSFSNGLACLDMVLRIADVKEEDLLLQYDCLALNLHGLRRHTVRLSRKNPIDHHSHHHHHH
Assay: SPR, mAb captured, ST2L-ECD in solution
Give bare numbers, in s⁻¹.

Worked cases, koff given:
Binder	Readout number
STLM213 (antibody, V domains shown, frameworks VH3-23 / Vk-L6) VH: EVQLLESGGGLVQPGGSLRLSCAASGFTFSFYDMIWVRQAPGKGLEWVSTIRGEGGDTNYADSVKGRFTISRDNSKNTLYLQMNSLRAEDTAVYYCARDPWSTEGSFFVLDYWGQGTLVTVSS VL: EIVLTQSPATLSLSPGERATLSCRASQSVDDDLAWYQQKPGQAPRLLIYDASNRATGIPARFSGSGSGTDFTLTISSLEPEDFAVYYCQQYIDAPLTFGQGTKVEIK	0.000108
STLM108 (antibody, V domains shown, frameworks VH3-23 / Vk-L6) VH: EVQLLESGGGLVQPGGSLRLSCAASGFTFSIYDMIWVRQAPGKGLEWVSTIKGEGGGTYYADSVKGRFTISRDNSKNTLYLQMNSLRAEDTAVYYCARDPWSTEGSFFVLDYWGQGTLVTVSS VL: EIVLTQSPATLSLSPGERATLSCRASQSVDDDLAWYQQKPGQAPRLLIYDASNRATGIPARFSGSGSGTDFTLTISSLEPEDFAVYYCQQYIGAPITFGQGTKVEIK	0.000222

Field: koff. Fill in for each record below.
1. STLM218 (antibody, V domains shown, frameworks VH3-23 / Vk-L6) VH: EVQLLESGGGLVQPGGSLRLSCAASGFTFSVDSMFWVRQAPGKGLEWVSSIEGNGGATYYADSVKGRFTISRDNSKNTLYLQMNSLRAEDTAVYYCARDPWSTEGSFFVLDYWGQGTLVTVSS VL: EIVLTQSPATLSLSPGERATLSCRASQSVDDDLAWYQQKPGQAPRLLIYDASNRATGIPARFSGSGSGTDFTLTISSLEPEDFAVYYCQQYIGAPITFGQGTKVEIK
2. STLM222 (antibody, V domains shown, frameworks VH3-23 / Vk-L6) VH: EVQLLESGGGLVQPGGSLRLSCAASGFTFSIYSMFWVRQAPGKGLEWVSDIGGEGGGTSYADSVKGRFTISRDNSKNTLYLQMNSLRAEDTAVYYCARDPWSTEGSFFVLDYWGQGTLVTVSS VL: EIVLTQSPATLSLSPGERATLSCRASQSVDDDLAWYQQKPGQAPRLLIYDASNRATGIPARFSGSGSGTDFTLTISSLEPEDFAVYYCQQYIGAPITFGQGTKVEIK
3. STLM230 (antibody, V domains shown, VH STLH201 + VL STLL274) VH: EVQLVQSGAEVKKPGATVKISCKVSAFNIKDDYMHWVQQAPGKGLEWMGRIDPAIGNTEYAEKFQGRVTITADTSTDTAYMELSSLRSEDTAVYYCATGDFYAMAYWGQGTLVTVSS VL: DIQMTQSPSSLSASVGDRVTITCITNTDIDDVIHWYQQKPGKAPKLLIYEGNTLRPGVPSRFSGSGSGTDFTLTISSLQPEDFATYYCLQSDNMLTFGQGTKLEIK
4. STLM232 (antibody, V domains shown, VH STLH201 + VL STLL272) VH: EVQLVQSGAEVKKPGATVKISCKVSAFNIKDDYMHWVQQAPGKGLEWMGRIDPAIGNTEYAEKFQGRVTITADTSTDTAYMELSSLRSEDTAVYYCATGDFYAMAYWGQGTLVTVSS VL: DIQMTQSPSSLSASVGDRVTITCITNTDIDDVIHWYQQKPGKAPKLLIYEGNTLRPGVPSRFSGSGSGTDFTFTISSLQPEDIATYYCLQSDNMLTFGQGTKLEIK
5. STLM219 (antibody, V domains shown, frameworks VH3-23 / Vk-L6) VH: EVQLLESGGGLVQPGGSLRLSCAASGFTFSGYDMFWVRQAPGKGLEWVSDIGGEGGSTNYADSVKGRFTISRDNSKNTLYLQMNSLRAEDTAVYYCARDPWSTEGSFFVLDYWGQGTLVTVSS VL: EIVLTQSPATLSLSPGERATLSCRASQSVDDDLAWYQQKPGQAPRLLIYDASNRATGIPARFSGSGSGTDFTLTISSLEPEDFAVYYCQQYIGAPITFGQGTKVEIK
6. STLM229 (antibody, V domains shown, VH STLH201 + VL STLL275) VH: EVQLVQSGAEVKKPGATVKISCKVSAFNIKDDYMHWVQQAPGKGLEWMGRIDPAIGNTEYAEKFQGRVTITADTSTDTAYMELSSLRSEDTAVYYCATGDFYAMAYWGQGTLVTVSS VL: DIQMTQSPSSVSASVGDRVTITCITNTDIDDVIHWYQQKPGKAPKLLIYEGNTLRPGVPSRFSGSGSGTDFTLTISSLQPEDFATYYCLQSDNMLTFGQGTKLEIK
7. STLM212 (antibody, V domains shown, frameworks VH3-23 / Vk-L6) VH: EVQLLESGGGLVQPGGSLRLSCAASGFTFSVYDMIWVRQAPGKGLEWVSTIRGEGGGTYYADSVKGRFTISRDNSKNTLYLQMNSLRAEDTAVYYCARDPWSTEGSFFVLDYWGQGTLVTVSS VL: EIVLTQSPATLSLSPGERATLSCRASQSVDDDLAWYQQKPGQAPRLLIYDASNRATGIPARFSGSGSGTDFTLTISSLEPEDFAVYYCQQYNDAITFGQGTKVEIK

[0.000224, 0.000301, 0.000426, 0.000449, 0.000201, 0.000445, 0.000398]
